Target: D(2) dopamine receptor (Homo sapiens, UniProt P14416)
Sequence (P14416 whole entry): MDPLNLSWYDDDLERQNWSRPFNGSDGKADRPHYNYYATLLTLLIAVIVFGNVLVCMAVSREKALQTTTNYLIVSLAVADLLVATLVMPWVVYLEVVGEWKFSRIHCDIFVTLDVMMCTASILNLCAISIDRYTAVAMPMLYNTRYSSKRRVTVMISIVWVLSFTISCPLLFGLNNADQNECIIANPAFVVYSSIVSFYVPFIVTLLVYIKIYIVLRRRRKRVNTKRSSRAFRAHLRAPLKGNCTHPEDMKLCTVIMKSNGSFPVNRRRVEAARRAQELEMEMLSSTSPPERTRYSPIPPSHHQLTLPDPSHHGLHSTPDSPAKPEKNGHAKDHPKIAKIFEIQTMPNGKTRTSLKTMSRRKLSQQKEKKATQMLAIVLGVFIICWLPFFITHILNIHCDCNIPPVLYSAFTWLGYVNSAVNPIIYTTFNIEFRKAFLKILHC
property name: Ki (nM)
Output spec: scalar in nM, unitless text.

Guide cases for Ki, answers given:
Query :: Given Cc1c(C)c2ccc(OCCCN3CCN(c4ccccc4)CC3)cc2oc1=O , state its recorded Ki.
Result :: 5.92

Query :: What about Cc1cc(=O)oc2cc(OCCCN3CCN(c4ccccc4)CC3)ccc12 ?
Result :: 13.7

Proceeding to the next compound to report its Ki.
Query :: Given Cc1cc2ccc(OCCCN3CCN(c4ccccc4)CC3)cc2oc1=O , state its recorded Ki.
Result :: 10.8
